inhibition values by entry
tested on: Influenza A virus (A/udorn/1972(H3N2)); assay: Inhibition of Influenza A/Udorn/72/H3N2 full length GST-tagged NS1A/FAM-double strand RNA-interaction at 50 uM after 1 hr by fluorescence polarization assay
measuredMetric: inhibition (%)

>>> measuredvalue("O=C(NCc1ccco1)c1ccc2nc(-c3ccco3)c(-c3ccco3)nc2c1")
79.5
>>> measuredvalue("COc1ccccc1-c1nc2ccc(C(=O)O)cc2nc1-c1ccccc1OC")
2.8
>>> measuredvalue("COc1ccc(-c2nc3ccccc3nc2-c2ccc(OC)cc2)cc1")
0.5
>>> measuredvalue("O=C(NCc1cccs1)c1ccc2nc(-c3ccco3)c(-c3ccco3)nc2c1")
8.2
